src = ChEMBL document CHEMBL3864163

- EXPERIMENT: Intrinsic clearance in human hepatocytes assessed per 10^6 cells at 5 uM
- Assay type: ADME, cell-based, Hepatocyte
Listing: CLH of selected compounds
Number only, in mL/h; omit the unit.

Known results for compounds:
>>> experimental_result("COc1cc(CN(C[C@H]2CC[C@H](C(=O)O)CC2)[C@H]2CCc3cc(Cl)ccc32)ccc1OCCN1C(=O)CCC1=O")
0.112
>>> experimental_result("Cc1cc(CN(C[C@H]2CC[C@H](C(=O)O)CC2)[C@H]2CCc3cc(Cl)ccc32)ccc1OCCN1C(=O)CCC1=O")
0.09
>>> experimental_result("Cc1cc(CN(C[C@H]2CC[C@H](C(=O)O)CC2)[C@@H](C)c2ccc(Cl)cc2)ccc1OCCN1C(=O)CN(C)C1=O")
0.234

Param item = `COc1cc(CN(C[C@H]2CC[C@H](C(=O)O)CC2)[C@@H](C)c2ccc(Cl)cc2)ccc1OCCn1c(=O)ccn(C)c1=O` ; retrieve measured CLH.
0.159
